- tgt: Mitogen-activated protein kinase 14 (Homo sapiens, UniProt Q16539)
- Sequence (Q16539 whole entry): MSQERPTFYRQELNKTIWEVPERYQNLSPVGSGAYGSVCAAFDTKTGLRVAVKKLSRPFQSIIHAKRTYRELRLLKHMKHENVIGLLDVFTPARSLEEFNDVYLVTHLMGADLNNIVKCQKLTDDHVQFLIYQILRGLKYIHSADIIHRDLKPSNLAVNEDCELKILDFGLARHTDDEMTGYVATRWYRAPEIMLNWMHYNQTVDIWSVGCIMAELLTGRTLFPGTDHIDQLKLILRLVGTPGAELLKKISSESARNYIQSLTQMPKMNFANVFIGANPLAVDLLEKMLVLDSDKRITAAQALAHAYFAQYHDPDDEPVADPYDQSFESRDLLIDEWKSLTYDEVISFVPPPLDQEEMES
- protocol-details: Inhibition of active p38alpha
Please go through the items and note down their pIC50.
Give bare numbers, as −log10 of the molar value.

Observe how each entry below is paired with its result.
CC(C)(C)c1cc(NC(=O)Nc2ccccc2)n(-c2cccc(CNC(=O)C3C[C@H]3C(=O)O)c2)n1 (stereo partly drawn)    5.96
CC(C)(C)c1cc(NC(=O)Nc2ccccc2)n(-c2cccc(CNC(=O)CNC(=O)c3cccnc3)c2)n1    6.69
CC(C)(C)c1cc(NC(=O)Nc2ccccc2)n(-c2cccc(CNC(=O)CNC(=O)c3ccccc3)c2)n1    6.36
CC(C)(C)c1cc(NC(=O)Nc2cccc3ccccc23)n(-c2cccc(CNC(=O)CCC(=O)O)c2)n1    8.22
CC(C)(C)c1cc(NC(=O)Nc2ccccc2)n(-c2cccc(CNC(=O)C3CCCC[C@H]3C(=O)O)c2)n1 (stereo partly drawn)    5.47

// each molecule listed below needs its pIC50
1. CC(C)(C)c1cc(NC(=O)Nc2ccccc2)n(-c2cccc(CNC(=O)CNC=O)c2)n1
2. Cc1cc(C)n(CC(=O)NCc2cccc(-n3nc(C(C)(C)C)cc3NC(=O)Nc3ccccc3)c2)n1

Result:
6.48
6.48
